- system.tested: Cathepsin K (Homo sapiens, UniProt P43235)
- Sequence (P43235 whole entry): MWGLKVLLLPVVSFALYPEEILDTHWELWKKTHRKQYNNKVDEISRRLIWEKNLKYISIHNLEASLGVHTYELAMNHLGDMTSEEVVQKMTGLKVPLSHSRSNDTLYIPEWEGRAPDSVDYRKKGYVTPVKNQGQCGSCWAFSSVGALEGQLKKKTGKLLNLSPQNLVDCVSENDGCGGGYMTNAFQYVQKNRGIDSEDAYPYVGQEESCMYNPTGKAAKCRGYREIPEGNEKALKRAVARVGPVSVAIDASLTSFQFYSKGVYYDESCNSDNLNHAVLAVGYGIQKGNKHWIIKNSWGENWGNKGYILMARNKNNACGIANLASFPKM
- measurement.protocol: Inhibition of human recombinant cathepsin K
endpoint.name: log10(IC50) (log10 of the value in nM)

1. CN1CCN(c2ccc(CCNC(=O)c3cnc(C#N)nc3NCC(C)(C)C)cc2)CC1 | 1.40
2. N#Cc1ncc(C(=O)NCCc2ccccc2)c(NC2CCCCC2)n1 | 1.00
3. N#Cc1ccnc(NC2CCCCC2)n1 | 2.08
4. CN1CCN(Cc2ccc(CCNC(=O)c3cnc(C#N)nc3NCC(C)(C)C)cc2)CC1 | 1.04
5. N#Cc1ncc(C(=O)NCCc2ccc(N3CCCC3)cc2)c(NC2CCCCC2)n1 | 2.88
6. N#Cc1nccc(NC2CCCCC2)n1 | 2.23
7. CN1CCN(c2ccc(CCNC(=O)c3cnc(C#N)nc3NC3CCCCC3)cc2)CC1 | 1.67
8. CC(C)(C)CNc1nc(C#N)ncc1C(=O)NCCc1ccc(N2CCCC2)cc1 | 2.48
9. N#Cc1cccc(NC2CCCCC2)n1 | 3.00
10. CN1CCN(c2cccc(CCNC(=O)c3cnc(C#N)nc3NCC(C)(C)C)c2)CC1 | 1.04
11. CN1CCC(Oc2ccc(CCNC(=O)c3cnc(C#N)nc3NCC(C)(C)C)cc2)CC1 | 1.11
12. COc1ccc(CCNC(=O)c2cnc(C#N)nc2NCC(C)(C)C)cc1OCCn1ccnc1 | 1.49
13. CC(C)(C)CNc1nc(C#N)ncc1C(=O)NCCc1ccc(OCCn2ccnc2)cc1 | 0.48
14. COc1ccc(CCNC(=O)c2cnc(C#N)nc2NC2CCCCC2)cc1 | 1.34
15. CC(C)(C)CNc1nc(C#N)ncc1C(=O)NCCc1cccc(OCCn2ccnc2)c1 | 0.48
16. COc1cccc(CCNC(=O)c2cnc(C#N)nc2NC2CCCCC2)c1 | 0.95
